biological target: T1, human IL-1β (human, UniProt P01584 117-269); assay: IC50 column of Table 63; receptor binding assay presumed
T1 construct: antigen of the ABT2 dAbs; also called hIL-1β; IL-1 beta
ASSAY READOUT: log10(IC50) (log10 of the value in µM)

# BINDER, TEST VALUE
measured = [
    ("ABT2-65-30 (other, VH dAb) VH: EVRLLESGGGLVQPGGSLRLSCAASGFTFEDYQMGWVRQAPGKGLEWVSSISAMGNRTYYADSVKGRFTISRDDSKNTLYLQMNSLRAEDTAVYYCAQNLVRLNRRDWMFDYWGQGTLVTVSS", -1.70),
    ("ABT2-63 (other, VK dAb) VL: DIQMTQSPSSLSASVGDRVTITCRASQSIRVFLSWYQQKPGKAPKLLIYNASYLQSGVPSRFSGSGSGTDFTLTISSLQPEDFATYYCQQRALYPTTFGQGTKVEIKR", 0.00),
    ("ABT2-65-170 (other, VH dAb) VH: EVQLLESGGGLVQPGGSLRLSCAASGFTFEDYQMGWVRQAPGKGLEWVSSISAMGNRTYYADSVKGRFTISRDDSKNTLYLQMNSLRAEDTAVYYCAENLVRVLLNKWMFDYWGQGTLVTVSS", -2.00),
    ("ABT2-65-49 (other, VH dAb) VH: GVQLLESGGGLVQPGGSLRLSCAASGFTFEDYQMGWVRQAPGKGLEWVSSISAMGNRTYYADSVKGRFTISRDDSKNTLYLQMNSLRAEDTAVYYCAQNLVRTQSKMWMFDYWGQGTLVTVSS", -1.70),
    ("ABT2-65-11 (other, VH dAb) VH: EVQLLESGGGLVQPGGSLRLSCAASGFTFRAYPMGWVRQAPGKGLEWVSSISAMGNRTYYADSVKGRFTISRDDSKNTLYLQMNSLRAEDTAVYYCANNLVRTQSKMWMFDYWGQGTLVTVSS", -1.30),
    ("ABT2-65-144 (other, VH dAb) VH: EVQLLESGGGLVQPGGSLRLSCAASGFTFEDYQMGWVRQAPGKGLEWVSSISAMGNRTYYADSVKGRFTISRDDSKNTLYLQMNSLRAEDTAVYYCAENLVRISKKQWMFDYWGQGTLVTVSS", -2.22),
    ("ABT2-65-132 (other, VH dAb) VH: EVQLLESGGGLVQPGGSLRLSCAASGFTFEDYQMGWVRQAPGKGLEWVSSISAMGNRTYYADSVKGRFTISRDDSKNTLYLQMNSLRAEDTAVYYCAENLVRLASRRWMFDYWGQGTLVTVSS", -2.30),
    ("ABT2-65-2 (other, VH dAb) VH: EVQLLESGGGLVQPGGSLRLSCAASGFTFSTYNMGWVRQAPGKGLEWVSSISAMGNRTYYADSVKGRFTISRDDSKNTLYLQMNSLRAEDTAVYYCANNLVRTQSKMWMFDYWGQGTLVTVSS", -1.70),
]
